assay: Moisture content, Karl-Fischer water determination; type: physicochemical; conditions: table 1; dried product
Where a name gives a salt, the structure may show the parent alone. Peptide text beside a SMILES is read from it.
measured-property: moisture content (wt. %)
API: value field is a number in wt. %; no unit string.

compound: CC1=CC(=O)NS(=O)(=O)O1.COC(=O)[C@H](Cc1ccccc1)NC(=O)[C@@H](N)CC(=O)O [exp. 4c., 1:1 salt of APM and acesulfamic acid] (H-Asp-Phe-OMe)
moisture content (wt. %): 0.04
//
compound: CC1=CC(=O)NS(=O)(=O)O1.COC(=O)[C@H](Cc1ccccc1)NC(=O)[C@@H](N)CC(=O)O [comp. exp. 1C, 1:1 salt of APM and acesulfamic acid] (H-Asp-Phe-OMe)
moisture content (wt. %): 0.76
//
compound: CC1=CC(=O)NS(=O)(=O)O1.COC(=O)[C@H](Cc1ccccc1)NC(=O)[C@@H](N)CC(=O)O [exp. 2a., 1:1 salt of APM and acesulfamic acid] (H-Asp-Phe-OMe)
moisture content (wt. %): 0.11
//
compound: COC(=O)[C@H](Cc1ccccc1)NC(=O)[C@@H](N)CC(=O)O.O=C1NS(=O)(=O)c2ccccc21 [exp. 1a., 1:1 salt of APM and SacH] (H-Asp-Phe-OMe)
moisture content (wt. %): 0.03
//
compound: COC(=O)[C@H](Cc1ccccc1)NC(=O)[C@@H](N)CC(=O)O [APM granulate, reference compound] (H-Asp-Phe-OMe)
moisture content (wt. %): 2.30

Exam item: Which moisture content is listed for COC(=O)[C@H](Cc1ccccc1)NC(=O)[C@@H](N)CC(=O)O [exp. 1b., 1:1 salt of APM and CycH] (H-Asp-Phe-OMe) ?
Marked response: 0.16

Exam item: For CC1=CC(=O)NS(=O)(=O)O1.COC(=O)[C@H](Cc1ccccc1)NC(=O)[C@@H](N)CC(=O)O [exp. 4a., 1:1 salt of APM and acesulfamic acid] (H-Asp-Phe-OMe) then?
Marked response: 0.12

Exam item: For CC1=CC(=O)NS(=O)(=O)O1.COC(=O)[C@H](Cc1ccccc1)NC(=O)[C@@H](N)CC(=O)O [comp. exp. 1D, 1:1 salt of APM and acesulfamic acid] (H-Asp-Phe-OMe) then?
Marked response: 0.89

Exam item: For COC(=O)[C@H](Cc1ccccc1)NC(=O)[C@@H](N)CC(=O)O [APM powder] (H-Asp-Phe-OMe) then?
Marked response: 2.60
